meta.source: the supplement of paper PMC11246515

- methodNotes: total protein half-life in vivo (active degradation + dilution); higher = more stable protein
- testParameters: E. coli NCM3722 delta-clpP; growth: N-lim chemostat; doubling time 6 h
Collected total protein half-life in vivo values appear next to each entry.
The reply should be a number in h, with the unit left off.

A selection of reference data follows.
MDNRGEFLNNVAQALGRPLRLEPQAEDAPLNNYANERLTQLNQQQRCDAFIQFASDVMLTRCELTSEAKAAEAAIRLCKELGDQSVVISGDTRLEELGISERLQQECNAVVWDPAKGAENISQAEQAKVGVVYAEYGLTESGGVVLFSAAERGRSLSLLPEYSLFILRKSTILPRVAQLAEKLHQKAQAGERMPSCINIISGPSSTADIELIKVVGVHGPVKAVYLIIEDC    1.46
MENNEIQSVLMNALSLQEVHVSGDGSHFQVIAVGELFDGMSRVKKQQTVYGPLMEYIADNRIHAVSIKAYTPAEWARDRKLNGF [P0A9W6]    3.86
MFSALRHRTAALALGVCFILPVHASSPKPGDFANTQARHIATFFPGRMTGTPAEMLSADYIRQQFQQMGYRSDIRTFNSRYIYTARDNRKSWHNVTGSTVIAAHEGKAPQQIIIMAHLDTYAPLSDADADANLGGLTLQGMDDNAAGLGVMLELAERLKNTPTEYGIRFVATSGEEEGKLGAENLLKRMSDTEKKNTLLVINLDNLIVGDKLYFNSGVKTPEAVRKLTRDRALAIARSHGIAATTNPGLNKNYPKGTGCCNDAEIFDKAGIAVLSVEATNWNLGNKDGYQQRAKTPAFPAGNSWHDVRLDNHQHIDKALPGRIERRCRDVMRIMLPLVKELAKAS    5.3

Ask: Answer with reported total protein half-life in vivo of MKKFAAVIAVMALCSAPVMAAEQGGFSGPSATQSQAGGFQGPNGSVTTVESAKSLRDDTWVTLRGNIVERISDDLYVFKDASGTINVDIDHKRWNGVTVTPKDTVEIQGEVDKDWNSVEIDVKQIRKVNP [P0ADU5]
Result: 5.07

Ask: Answer with reported total protein half-life in vivo of MWSEYSLEVVDAVARNGSFSAAAQELHRVPSAVSYTVRQLEEWLAVPLFERRHRDVELTAAGAWFLKEGRSVVKKMQITRQQCQQIANGWRGQLAIAVDNIVRPERTRQMIVDFYRHFDDVELLVFQEVFNGVWDALSDGRVELAIGATRAIPVGGRYAFRDMGMLSWSCVVASHHPLALMDGPFSDDTLRNWPSLVREDTSRTLPKRITWLLDNQKRVVVPDWESSATCISAGLCIGMVPTHFAKPWLNEGKWVALELENPFPDSACCLTWQQNDMSPALTWLLEYLGDSETLNKEWLREPEETPATGD [P0ACR2]
Result: 5.02

Ask: Answer with reported total protein half-life in vivo of MSDISKASLPKAIFLMGPTASGKTALAIELRKILPVELISVDSALIYKGMDIGTAKPNAEELLAAPHRLLDIRDPSQAYSAADFRRDALAEMADITAAGRIPLLVGGTMLYFKALLEGLSPLPSADPEVRARIEQQAAEQGWESLHRQLQEVDPVAAARIHPNDPQRLSRALEVFFISGKTLTELTQTSGDALPYQVHQFAIAPASRELLHQRIEQRFHQMLASGFEAEVRALFARGDLHTDLPSIRCVGYRQMWSYLEGEISYDEMVYRGVCATRQLAKRQITWLRGWEGVHWLDSEKPEQARDEVLQVVGAIAG
Result: 4.34
